Let's look at some molecules and their measured fitness.
System: B. subtilis 168;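 further: OD595 on entry to stationary phase over no-drug wells; at most 1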
Experiment: fitness (endpoint OD595 vs no drug) (fraction); higher = more growth
Conditions: first compound 0.5 µg/mL; partner 0.125 µg/mL; one replicate
Output: the number by itself.

The cases that follow already have their fitness on record.
| molecule | fitness |
| --- | --- |
| CC(=O)NC[C@H]1CN(c2ccc(N3CCOCC3)c(F)c2)C(=O)O1 [Linezolid] + CO[C@@H]1[C@@H](OC(N)=O)[C@@H](O)[C@H](Oc2ccc3c(O)c(NC(=O)c4ccc(O)c(CC=C(C)C)c4)c(=O)oc3c2C)OC1(C)C [Novobiocin] | 0.069 |
| CC(=O)NC[C@H]1CN(c2ccc(N3CCOCC3)c(F)c2)C(=O)O1 [Linezolid] + COc1cc(Cc2cnc(N)nc2N)cc(OC)c1OC [Trimethoprim] | 0.0335 |
| CO[C@@H]1[C@@H](OC(N)=O)[C@@H](O)[C@H](Oc2ccc3c(O)c(NC(=O)c4ccc(O)c(CC=C(C)C)c4)c(=O)oc3c2C)OC1(C)C [Novobiocin] + CC1=C\[C@@H](O)CC(=O)Cc2nc(co2)C(=O)N2CCC=C2C(=O)O[C@H](C(C)C)[C@H](C)/C=C/C(=O)NC\C=C\1 [Virginiamycin M1] | 0.571 |
| CC(=O)NC[C@H]1CN(c2ccc(N3CCOCC3)c(F)c2)C(=O)O1 [Linezolid] + CN(C)c1cc(NC(=O)CNC(C)(C)C)c(O)c2c1C[C@H]1C[C@H]3[C@H](N(C)C)C(O)=C(C(N)=O)C(=O)[C@@]3(O)C(O)=C1C2=O [Tigecycline] | 0.214 |

# ---- query molecule ----
Problem: Requested field: fitness. Item: CO[C@@H]1[C@@H](OC(N)=O)[C@@H](O)[C@H](Oc2ccc3c(O)c(NC(=O)c4ccc(O)c(CC=C(C)C)c4)c(=O)oc3c2C)OC1(C)C [Novobiocin] + COc1cc(Cc2cnc(N)nc2N)cc(OC)c1OC [Trimethoprim]
Result: 0.424

* * *

# reported Bliss interaction score; entries follow
Tested on: S. pneumoniae D39V
Test: Bliss interaction score (quartile over a dose matrix) (fitness difference); higher = more antagonism (negative = synergy)

| compound | tgt | Bliss interaction score |
| --- | --- | --- |
| CN[C@@H]1[C@H](O)[C@H](NC)[C@H]2O[C@@]3(O)C(=O)C[C@@H](C)O[C@H]3O[C@@H]2[C@H]1O [Spectinomycin] + CC[C@H]1OC(=O)[C@H](C)C(=O)[C@H](C)[C@@H](O[C@@H]2O[C@H](C)C[C@H](N(C)C)[C@H]2O)[C@](C)(OC)C[C@@H](C)C(=O)[C@H](C)[C@H]2N(CCCCn3cnc(-c4cccnc4)c3)C(=O)O[C@]12C [Telithromycin] | S. pneumoniae D39V | -0.14 |

Problem: Request: Bliss interaction score, test system S. pneumoniae D39V, entry CO[C@@H]1[C@@H](OC(N)=O)[C@@H](O)[C@H](Oc2ccc3c(O)c(NC(=O)c4ccc(O)c(CC=C(C)C)c4)c(=O)oc3c2C)OC1(C)C [Novobiocin] + CN(N=O)C(=O)N[C@@H](C=O)[C@@H](O)[C@H](O)[C@H](O)CO [Streptozotocin]
Result: -0.105

Problem: Same thing, different compound: CC(=O)NC[C@H]1CN(c2ccc(N3CCOCC3)c(F)c2)C(=O)O1 [Linezolid] + Clc1ccc(COC(Cn2ccnc2)c2ccc(Cl)cc2Cl)c(Cl)c1 [Miconazole]
Result: 0.199

Problem: Same question, CC[C@H]1OC(=O)[C@H](C)[C@@H](O[C@H]2C[C@@](C)(OC)[C@@H](O)[C@H](C)O2)[C@H](C)[C@@H](O[C@@H]2O[C@H](C)C[C@H](N(C)C)[C@H]2O)[C@](C)(O)C[C@@H](C)C(=O)[C@H](C)[C@@H](O)[C@]1(C)O [Erythromycin] + CN(C)C(=O)C(CCN1CCC(O)(c2ccc(Cl)cc2)CC1)(c1ccccc1)c1ccccc1 [Loperamide] this time
Result: 0.116

Problem: Would you mind doing CN[C@@H]1[C@H](O)[C@H](NC)[C@H]2O[C@@]3(O)C(=O)C[C@@H](C)O[C@H]3O[C@@H]2[C@H]1O [Spectinomycin] + CN(N=O)C(=O)N[C@@H](C=O)[C@@H](O)[C@H](O)[C@H](O)CO [Streptozotocin] as well?
Result: -0.0505

* * *

System: S. aureus Newman
Test: Bliss interaction score (quartile over a dose matrix) (fitness difference); higher = more antagonism (negative = synergy)
Bliss interaction score for assorted compounds

Reference set (4 entries):
| compound | tgt | parameter | assay-value |
| --- | --- | --- | --- |
| CO[C@@H]1[C@@H](OC(N)=O)[C@@H](O)[C@H](Oc2ccc3c(O)c(NC(=O)c4ccc(O)c(CC=C(C)C)c4)c(=O)oc3c2C)OC1(C)C [Novobiocin] + CC1(C)S[C@@H]2[C@H](NC(=O)Cc3ccccc3)C(=O)N2[C@H]1C(=O)O [PenicillinG] | S. aureus Newman | Bliss interaction score | -0.0408 |
| CC(=O)NC[C@H]1CN(c2ccc(N3CCOCC3)c(F)c2)C(=O)O1 [Linezolid] + C/C(=C\C(=O)OCCCCCCCCC(=O)O)C[C@@H]1OC[C@H](C[C@@H]2O[C@H]2[C@@H](C)[C@H](C)O)[C@@H](O)[C@H]1O [Pseudomonic acid] | S. aureus Newman | Bliss interaction score | 0.0446 |
| CC(=O)NC[C@H]1CN(c2ccc(N3CCOCC3)c(F)c2)C(=O)O1 [Linezolid] + CC1=C\[C@@H](O)CC(=O)Cc2nc(co2)C(=O)N2CCC=C2C(=O)O[C@H](C(C)C)[C@H](C)/C=C/C(=O)NC\C=C\1 [Virginiamycin M1] | S. aureus Newman | Bliss interaction score | 0.0286 |
| CC(=O)NC[C@H]1CN(c2ccc(N3CCOCC3)c(F)c2)C(=O)O1 [Linezolid] + Cn1nnc(-c2ccc(-c3ccc(N4C[C@H](CO)OC4=O)cc3F)cn2)n1 [Tedizolid] | S. aureus Newman | Bliss interaction score | -0.153 |

Please turn your attention to the following entry.
Problem: // returns reported Bliss interaction score for input CC(=O)NC[C@H]1CN(c2ccc(N3CCOCC3)c(F)c2)C(=O)O1 [Linezolid] + Oc1cc(Cl)ccc1Oc1ccc(Cl)cc1Cl [Triclosan]
Result: 0.026

* * *

Attribute: Bliss interaction score
Tested on: S. pneumoniae D39V
Assay: Bliss interaction score (quartile over a dose matrix) (fitness difference); higher = more antagonism (negative = synergy)
API doc: respond with a numeric literal and nothing else, no unit.

Here are 2 molecules together with their reported answers.
| molecule | assay-value |
| --- | --- |
| CC(=O)NC[C@H]1CN(c2ccc(N3CCOCC3)c(F)c2)C(=O)O1 [Linezolid] + CN(C)C(=O)C(CCN1CCC(O)(c2ccc(Cl)cc2)CC1)(c1ccccc1)c1ccccc1 [Loperamide] | 0.176 |
| CO[C@@H]1[C@@H](OC(N)=O)[C@@H](O)[C@H](Oc2ccc3c(O)c(NC(=O)c4ccc(O)c(CC=C(C)C)c4)c(=O)oc3c2C)OC1(C)C [Novobiocin] + CC1(C)S[C@@H]2[C@H](NC(=O)Cc3ccccc3)C(=O)N2[C@H]1C(=O)O [PenicillinG] | -0.0976 |

Read the next record carefully.
Problem: Quick check: Bliss interaction score of CC[C@H]1OC(=O)[C@H](C)[C@@H](O[C@H]2C[C@@](C)(OC)[C@@H](O)[C@H](C)O2)[C@H](C)[C@@H](O[C@@H]2O[C@H](C)C[C@H](N(C)C)[C@H]2O)[C@](C)(O)C[C@@H](C)C(=O)[C@H](C)[C@@H](O)[C@]1(C)O [Erythromycin] + CC[C@H]1OC(=O)[C@H](C)C(=O)[C@H](C)[C@@H](O[C@@H]2O[C@H](C)C[C@H](N(C)C)[C@H]2O)[C@](C)(OC)C[C@@H](C)C(=O)[C@H](C)[C@H]2N(CCCCn3cnc(-c4cccnc4)c3)C(=O)O[C@]12C [Telithromycin] ?
Result: 0.0262

* * *

System: S. aureus DSM 20231
Assay: Bliss interaction score (quartile over a dose matrix) (fitness difference); higher = more antagonism (negative = synergy)
parameter: Bliss interaction score
Reply briefly: the number, and no unit.

Problem: Item under review: CC[C@H]1OC(=O)[C@H](C)[C@@H](O[C@H]2C[C@@](C)(OC)[C@@H](O)[C@H](C)O2)[C@H](C)[C@@H](O[C@@H]2O[C@H](C)C[C@H](N(C)C)[C@H]2O)[C@](C)(O)C[C@@H](C)C(=O)[C@H](C)[C@@H](O)[C@]1(C)O [Erythromycin] + CN[C@@H]1[C@H](O[C@H]2[C@H](O[C@H]3[C@H](O)[C@@H](O)[C@H](N=C(N)N)[C@@H](O)[C@@H]3N=C(N)N)O[C@@H](C)[C@]2(O)C=O)O[C@@H](CO)[C@H](O)[C@H]1O [Streptomycin] . Reported Bliss interaction score?
Result: 0.0256

Where do the numbers come from? From the supplement of paper PMC10627819.
